Record form. Attribute: pIC50. Fill in for each entry.
Target: EGFR (Human), P00533 [T790M/L858R]
Sequence (P00533 whole entry T790M/L858R, looked up): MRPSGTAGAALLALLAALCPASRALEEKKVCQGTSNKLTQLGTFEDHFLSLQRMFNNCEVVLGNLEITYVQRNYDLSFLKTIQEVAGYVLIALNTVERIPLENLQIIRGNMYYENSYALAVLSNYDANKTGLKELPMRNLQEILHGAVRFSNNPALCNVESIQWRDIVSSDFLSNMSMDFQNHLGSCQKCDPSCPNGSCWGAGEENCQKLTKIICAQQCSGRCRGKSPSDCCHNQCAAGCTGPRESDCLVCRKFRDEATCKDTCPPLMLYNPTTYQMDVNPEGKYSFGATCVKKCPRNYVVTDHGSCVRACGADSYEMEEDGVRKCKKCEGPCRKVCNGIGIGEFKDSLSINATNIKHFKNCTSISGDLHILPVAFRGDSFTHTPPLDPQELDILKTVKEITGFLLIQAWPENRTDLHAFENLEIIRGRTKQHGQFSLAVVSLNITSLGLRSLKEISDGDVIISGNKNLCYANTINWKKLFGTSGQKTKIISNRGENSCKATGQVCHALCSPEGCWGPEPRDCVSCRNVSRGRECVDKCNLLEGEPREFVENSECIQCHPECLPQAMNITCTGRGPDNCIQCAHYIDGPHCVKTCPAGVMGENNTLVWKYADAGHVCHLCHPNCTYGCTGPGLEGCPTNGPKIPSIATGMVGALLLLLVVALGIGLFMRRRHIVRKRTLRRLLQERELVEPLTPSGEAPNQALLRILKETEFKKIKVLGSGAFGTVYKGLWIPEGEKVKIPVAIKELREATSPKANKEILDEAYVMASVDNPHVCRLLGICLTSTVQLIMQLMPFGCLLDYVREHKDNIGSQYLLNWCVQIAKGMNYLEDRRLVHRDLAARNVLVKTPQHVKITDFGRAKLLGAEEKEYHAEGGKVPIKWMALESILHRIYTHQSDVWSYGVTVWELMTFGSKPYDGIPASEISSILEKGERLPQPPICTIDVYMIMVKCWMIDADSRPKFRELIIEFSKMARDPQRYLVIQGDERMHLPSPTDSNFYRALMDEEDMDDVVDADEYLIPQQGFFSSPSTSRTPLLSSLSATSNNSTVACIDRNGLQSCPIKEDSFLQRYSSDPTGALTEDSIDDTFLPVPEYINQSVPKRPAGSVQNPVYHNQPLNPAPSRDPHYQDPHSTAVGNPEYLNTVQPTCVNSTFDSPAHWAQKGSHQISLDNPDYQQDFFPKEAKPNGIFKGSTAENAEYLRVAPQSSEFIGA
Settings: baf3
pIC50: −log10 of the molar value.

Worked examples follow.
In [3]: df
Out[3]:
                                   compound  attribute_measured         value
0  COCC#CC(=O)Nc1ccc(OC)c(Nc2ncc(Cl)c(Nc3ccccc3P(C)(C)=O)n2)c1               pIC50        > 7.30
1  C=CC(=O)Nc1cc(Nc2ncc(Cl)c(Nc3ccccc3P(C)(C)=O)n2)c(OC)cc1N1CCC(N2CCN(C)CC2)C1 (centres undefined)               pIC50  6.60 to 7.00
2  COCC#CC(=O)Nc1cc(Nc2ncc(Cl)c(Nc3ccccc3P(C)(C)=O)n2)c(OC)cc1N1CCOCC1               pIC50        > 7.30

Switching to the query record.
I would be grateful if you could share the reported pIC50 for C=CC(=O)Nc1cc(Nc2ncc(Cl)c(Nc3ccccc3S(=O)(=O)C(C)C)n2)c(OC)cc1C#CCN(C)C .
> 7.30

* * *

Kindly supply the reported pIC50 values for the records listed here.
Biological target: EGFR (Human), P00533 [T790M/L858R]
Settings: baf3
pIC50: −log10 of the molar value.

>>> df
                                   molecule         value
0  C=CC(=O)Nc1cc(Nc2ncc(Cl)c(Nc3ccccc3P(C)(C)=O)n2)c(OC)cc1OCC1CCCCN1C (stereo not drawn)        > 7.30
1  CNC(=O)/C=C\C(=O)Nc1ccc(OC)c(Nc2ncc(Cl)c(Nc3ccccc3P(C)(C)=O)n2)c1  6.60 to 7.00
2  C=CC(=O)Nc1cc(Nc2ncc(Cl)c(Nc3ccccc3P(C)(C)=O)n2)c(OC)cc1C#CCN(C)C(C)C        > 7.30

Record pIC50 per entry; entries follow.
1. C=CC(=O)Nc1cc(Nc2ncc(Cl)c(Nc3ccccc3P(C)(C)=O)n2)c(OC)cc1N1CCC(O)C1 (stereo not drawn)
2. COc1cc(F)c(NC(=O)/C=C/Cl)cc1Nc1ncc(Cl)c(Nc2ccccc2P(C)(C)=O)n1
3. CCOC(=O)/C=C/C(=O)Nc1ccc(OC)c(Nc2ncc(Cl)c(Nc3ccccc3P(C)(C)=O)n2)c1
4. C=CC(=O)Nc1cc(Nc2ncc(Cl)c(Nc3ccccc3P(C)(C)=O)n2)c(OC)cc1C#CCN(C)C
5. C=C(CN1CCN(C)CC1)C(=O)Nc1ccc(OC)c(Nc2ncc(Cl)c(Nc3ccccc3P(C)(C)=O)n2)c1

["6.60 to 7.00", "> 7.30", "> 7.30", "> 7.30", "> 7.30"]

* * *

Molecular target: EGFR (Human), P00533 [T790M/L858R]
Conditions: baf3
pIC50: −log10 of the molar value.
attribute.measured: pIC50

Look over these answered cases.
>>> print(df.to_string())
                                   compound         value
0  C=CC(=O)Nc1cc(Nc2ncc(Cl)c(Nc3ccccc3P(C)(C)=O)n2)c(OC)cc1C#CC(C)(C)N1CCCC1        > 7.30
1  CC#CC(=O)Nc1cc(Nc2ncc(Cl)c(Nc3ccccc3P(C)(C)=O)n2)c(OC)cc1N1CCC(N(C)C)C1 (stereo not given)  7.00 to 7.30

For each entry beneath this line, provide reported pIC50.
1. C=CC(=O)Nc1ccc(OC)c(Nc2ncc(Cl)c(Nc3ccc(OCCN4CCCCC4)cc3P(C)(C)=O)n2)c1
2. C=CC(=O)Nc1ccc(OC)c(Nc2ncc(Cl)c(Nc3ccc(OCCN(C)C)cc3P(C)(C)=O)n2)c1
3. COCC1CCCN1CCC#CC(=O)Nc1cc(Nc2ncc(Cl)c(Nc3ccccc3P(C)(C)=O)n2)c(OC)cc1N1CCOCC1 (stereo not given)

> 7.30
> 7.30
> 7.30
